- Experimental Details: qHTS assay for small molecule agonists of the p53 signaling pathway - cell viability (AID 651633); also: nearly all actives have a fitted effect of over 30% in size
- Particulars: p53RE-bla HCT-116 viability, ATP luminescence, 16 h; series mostly up to 83.3 µM
- Description: National Center for Advancing Translational Sciences [NCATS] NIH Chemical Genomics Center [NCGC] U.S. Environmental Protection Agency [EPA] National Institutes of Environmental Health Sciences [NIEHS] National Toxicology Program [NTP] U.S. Food and Drug Administration [FDA] p53, a tumor suppressor protein, is activated following cellular insult, including DNA damage and other cellular stresses. […] The activation of the reporter gene under culture conditions can be detected by fluorescence intensity. […]
Inconclusive results are not listed. Calls of active or inactive are those of the source. Calls follow the shape of the full dose curve.
Response enum: active, inactive

Previously resolved entries follow.
[[record]]
molecule = "O=C(NC(=O)c1ccccc1Cl)Nc1ccc(OC(F)(F)F)cc1"
class_name = "inactive"

[[record]]
molecule = "Oc1ccc2[nH]cc(CCCCN3CC=C(c4ccccc4)CC3)c2c1"
class_name = "inactive"

[[record]]
molecule = "O=C(O)CCCCCCNC1c2ccccc2CCc2ccccc21"
class_name = "inactive"

[[record]]
molecule = "O=[N+]([O-])C(Br)Br"
class_name = "inactive"

[[record]]
molecule = "Cc1ccc(C)c2ccccc12"
class_name = "inactive"

[[record]]
molecule = "c1cc[n+]2c(c1)-c1cccc[n+]1CC2"
class_name = "inactive"


Tell me the assay call for O=C1C2(Cl)C3(Cl)C4(Cl)C(Cl)(Cl)C5(Cl)C3(Cl)C1(Cl)C5(Cl)C24Cl (stereo unspecified) please. active

# fetch the recorded call for `S=C=NCCc1ccccc1` here inactive

Lab log entry: CC(C)c1c(CN(C)C(C)Cc2ccccc2)n(C)n(-c2ccccc2)c1=O (stereo unspecified) — outcome as called in the assay? inactive

For `ClC(Cl)C(Cl)(Cl)Cl` , what call appears in the results of this test? inactive

Recorded test call requested for `O=[N+]([O-])c1cccc2cccc([N+](=O)[O-])c12` inactive

Tell me the recorded outcome of this test for `O=C(N[C@@H]1N=C(c2ccccc2F)c2cccc3c2N(CC3)C1=O)c1cc2ccccc2[nH]1` . inactive

// return assay outcome for `CC(=O)[O-].CC(=O)[O-].CC(=O)[O-].[Cr+3]` inactive

Called result for `CN` inactive

Entry `N#Cc1ccc(N(CC(N)=O)CC(F)(F)F)cc1C(F)(F)F` : call = ? inactive

I would be grateful if you could indicate the recorded call for CN1[C@@H]2CC[C@H]1CC(O)C2 (stereo partly specified) . inactive

Give the logged outcome of this assay for the following molecule: `S=C=Nc1ccccc1` inactive

Per the assay record, what outcome was assigned to `CCCCN(CCCC)C(=S)S` ? inactive

Any idea what this test logged for `CC1=C2C[C@H]3[C@@H](CC=C4C[C@@H](O)CC[C@@]43C)[C@@H]2CC[C@]12O[C@@H]1C[C@H](C)CN[C@H]1[C@H]2C` ? inactive

Any idea what this test logged for `C=C(C)C(=O)[O][Sn]([CH2]CCC)([CH2]CCC)[CH2]CCC` ? active

Hi, sorry to bother you, what did the test record for `CC(=O)[O][Pb]([c]1ccccc1)([c]1ccccc1)[c]1ccccc1` ? active

// return assay outcome for `[O]=[Cr][O][Cr]=[O]` inactive
